Origin of measurements: patent US6632621B1

measured-on: CEGPCR16 receptor (Caenorhabditis elegans, UniProt Q9XXU4)
Sequence (Q9XXU4 1-365): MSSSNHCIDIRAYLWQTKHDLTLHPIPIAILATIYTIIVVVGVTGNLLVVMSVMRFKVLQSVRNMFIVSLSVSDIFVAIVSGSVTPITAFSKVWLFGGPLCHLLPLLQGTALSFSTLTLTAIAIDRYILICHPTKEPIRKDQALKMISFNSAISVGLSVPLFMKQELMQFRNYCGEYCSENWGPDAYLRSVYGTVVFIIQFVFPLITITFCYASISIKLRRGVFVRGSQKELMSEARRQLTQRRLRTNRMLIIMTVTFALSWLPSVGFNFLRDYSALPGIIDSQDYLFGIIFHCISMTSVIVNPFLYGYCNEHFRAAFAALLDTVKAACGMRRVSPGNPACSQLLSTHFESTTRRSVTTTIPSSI
protocol-description: [35S]GTPγS binding assay, CEGPCR16 expressed in CHO cells
Format: biochemical, C. elegans
run-conditions: read-out: EC50
Where no end group is shown, it is not given here.
endpoint: pEC50
Please keep in mind that pEC50 is minus log10 of the molar concentration; only the number is needed.

Specify measured pEC50 for SVPGVLRF-NH2 [SVPGVLRF-NH2] .
7.19

====

measured-on: CEGPCR16 receptor (Caenorhabditis elegans)
protocol-description: [35S]GTPγS binding assay, CEGPCR16 expressed in CHO cells
Assay type: biochemical, C. elegans
run-conditions: Table 10; one range for the group of peptides; read-out: EC50 range
Where no end group is shown, it is not given here.
endpoint: EC50

Tell me EC50 reported for SVPGVLRF-NH2 [SVPGVLRF-NH2]
60 to 300 nM

Supply EC50 value. Item: AVPGVLRF-NH2 [AVPGVLRF-NH2]
700 to 4600 nM

Name the recorded EC50 of the item EAEEPLGTMRF-NH2 [EAEEPLGTMRF-NH2] in your answer.
60 to 300 nM

Given the substance KSVPGVLRF-NH2 [KSVPGVLRF-NH2] , write its reported EC50.
700 to 4600 nM

Check the records and state EC50 for ASEDALFGTMRF-NH2 [ASEDALFGTMRF-NH2]
60 to 300 nM

Quick one: give measured EC50 for SADDSAPFGTMRF-NH2 [SADDSAPFGTMRF-NH2]
60 to 300 nM

Provide only the value of recorded EC50 for DFDGAMPGVLRF-NH2 [DFDGAMPGVLRF-NH2]
700 to 4600 nM

Please give measured EC50 of the following entry: SEVPGVLRF-NH2 [SEVPGVLRF-NH2]
700 to 4600 nM

Using the record for SAEPFGTMRF-NH2 [SAEPFGTMRF-NH2] , state its measured EC50.
60 to 300 nM

// Input: SPLGTMRF-NH2 [SPLGTMRF-NH2] . Output its EC50 only.
60 to 300 nM

For the substance EIPGVLRF-NH2 [EIPGVLRF-NH2] , give its measured EC50 value.
700 to 4600 nM

Please indicate EC50 recorded for GDVPGVLRF-NH2 [GDVPGVLRF-NH2]
700 to 4600 nM

Write down EC50 measured for item EDGNAPFGTMRF-NH2 [EDGNAPFGTMRF-NH2]
60 to 300 nM

Look up and report measured EC50 for this entry: GMPGVLRF-NH2 [GMPGVLRF-NH2]
60 to 300 nM

Report EC50, nothing else, for this substance: DVPGVLRF-NH2 [DVPGVLRF-NH2]
700 to 4600 nM

====

measured-on: CEGPCR5 (Caenorhabditis elegans, UniProt Q18179)
Sequence (Q18179 whole entry): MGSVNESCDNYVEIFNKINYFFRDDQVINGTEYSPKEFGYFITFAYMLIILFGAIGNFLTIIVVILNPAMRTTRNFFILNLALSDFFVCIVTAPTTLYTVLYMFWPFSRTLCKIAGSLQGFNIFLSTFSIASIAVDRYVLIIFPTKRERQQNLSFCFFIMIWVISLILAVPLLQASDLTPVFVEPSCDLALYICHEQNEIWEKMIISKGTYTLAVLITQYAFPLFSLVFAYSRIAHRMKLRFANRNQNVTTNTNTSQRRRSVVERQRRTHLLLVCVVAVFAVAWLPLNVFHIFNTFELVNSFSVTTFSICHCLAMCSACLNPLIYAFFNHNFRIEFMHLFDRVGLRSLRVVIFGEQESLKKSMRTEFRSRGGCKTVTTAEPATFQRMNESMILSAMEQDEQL
protocol-description: [35S]GTPγS binding assay, CEGPCR5 expressed in CHO cells
Format: biochemical, C. elegans
pEC50: −log10 of the molar value. Where no end group is shown, it is not given here.
For each entry below, report its pEC50 value.

Fetch value of pEC50 on CEGPCR5 (Caenorhabditis elegans, UniProt Q18179) for GNSFLRF-NH2 [GNSFLRF-NH2] .
6.10 to 7.10

Report value: pEC50, system: CEGPCR5 (Caenorhabditis elegans, UniProt Q18179), substance: KHEYLRF-NH2 [KHEYLRF-NH2]
5.10 to 6.00

GET pEC50 where system = CEGPCR5 (Caenorhabditis elegans, UniProt Q18179) and item = KSVPGVLRF-NH2 [KSVPGVLRF-NH2]
5.10 to 6.00

Quote CEGPCR5 (Caenorhabditis elegans, UniProt Q18179) pEC50 for entry KPNFLRF-NH2 [KPNFLRF-NH2] .
5.10 to 6.00
